Values from the supplement of paper PMC11208160

- PROCEDURE_SUMMARY: recombinant barcode read abundance after kanamycin selection (control-corrected) (log10(CPM+1)); higher = more efficient recombination; sequences stand for … in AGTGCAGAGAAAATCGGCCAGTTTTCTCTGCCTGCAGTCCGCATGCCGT…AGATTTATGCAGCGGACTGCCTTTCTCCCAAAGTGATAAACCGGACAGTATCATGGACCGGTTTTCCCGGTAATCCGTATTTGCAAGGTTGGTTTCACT; site = the 11-nt target;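 also: IS621 recombinase and bridge RNA in Escherichia coli cells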
Given measured recombinant barcode read abundance (log10), output true if it is greater than or equal to 0.2 and false if not.

Example entries begin here.
PRIMARY_SEQUENCE	CLASS
GGGTCCTCTTGGGTTCTAACCTGTTGCCC (site GGGTCCTCTTG)	false
GTCTAAGCTTGGGTTCTAACCTGTTGCTT (site GTCTAAGCTAA)	false
TTGAAATCTTGGGTTCTAACCTGTTGCCT (site TTGAAATCTAG)	false
TCTGACTCTTGGGTTCTAACCTGTTGCAT (site TCTAATTCTAT)	false
CACAGTACTTGGGTTCTAACCTGTTGCCT (site TACAGTACTAG)	false
GTAAGGACTTGGGTTCTAACCTGTTGCTT (site GTAAGGACTAA)	true
GGACAATCTTGGGTTCTAACCTGTTGCCT (site GGACTATCTAG)	false
ACCCAGCCTTGGGTTCTAACCTGTTGCTT (site ACCCAGCCTAA)	true
CAACCACCTTGGGTTCTAACCTGTTGCTT (site CAATCACCTAA)	false

Prompt: recombinant barcode read abundance (log10) >= 0.2 for TCTGGGGCTTGGGTTCTAACCTGTTGCCG (site TCTGGGGCTCA) ?
Completion: true
